# Test Summary: activity coefficient (dimensionless); of the first substance listed, at infinite dilution; xn = mol fraction of the nth substance listed
# Settings: 303.45 K; 101 kPa; Liquid; Chromatography; x1 = 0
Reported activity coefficient values for a set of molecules
I only need the number, thanks.

CCCCCC [hexane] + CCCCn1cc[n+](C)c1.O=S(=O)([O-])C(F)(F)F ... 29.8
C=CCCCC [hex-1-ene] + CCCCn1cc[n+](C)c1.O=S(=O)([O-])C(F)(F)F ... 14.4
C=CCCCCC [1-heptene] + CCCCn1cc[n+](C)c1.O=S(=O)([O-])C(F)(F)F ... 21.8
C=CCCC [1-pentene] + CCCCn1cc[n+](C)c1.O=S(=O)([O-])C(F)(F)F ... 10.1

Challenge: State, in one line, measured activity coefficient of CCCCCCC [heptane] + CCCCn1cc[n+](C)c1.O=S(=O)([O-])C(F)(F)F
Response given: 45

Challenge: Provide activity coefficient value for the following molecule: C=CCCCCCC [oct-1-ene] + CCCCn1cc[n+](C)c1.O=S(=O)([O-])C(F)(F)F
Response given: 33.7
